Here the recorded Papp is given for each entry.
Test: Effective permeability of the compound by PAMPA
Assay type: ADME
Conditions: read-out: Peff
assay_readout: Papp (×10⁻⁶ cm/s)

- mol_smiles: "CS(=O)(=O)c1nn(Cc2nc3cc(Cl)ccc3n2CCCCC(F)(F)F)c2cnccc12"
  observed_value: 0.95
- mol_smiles: "CN(C)S(=O)(=O)c1cn(Cc2nc3cc(Cl)ccc3n2CCCS(C)(=O)=O)c2ccccc12"
  observed_value: 1.55
- mol_smiles: "CS(=O)(=O)c1nn(Cc2nc3cc(Cl)ccc3n2CCOCCO)c2cnccc12"
  observed_value: 3.12
- mol_smiles: "CC(C)(O)CCCn1c(Cn2nc(S(C)(=O)=O)c3ccncc32)nc2cc(Cl)ccc21"
  observed_value: 2.57
- mol_smiles: "CS(=O)(=O)c1nn(Cc2nc3cc(Cl)ccc3n2CCCCO)c2cnccc12"
  observed_value: 2.42
